Answer each item with its documented inhibition at 5 µM.
Target: cruzain (Trypanosoma cruzi, UniProt P25779)
Sequence (P25779 123-337 limits assumed): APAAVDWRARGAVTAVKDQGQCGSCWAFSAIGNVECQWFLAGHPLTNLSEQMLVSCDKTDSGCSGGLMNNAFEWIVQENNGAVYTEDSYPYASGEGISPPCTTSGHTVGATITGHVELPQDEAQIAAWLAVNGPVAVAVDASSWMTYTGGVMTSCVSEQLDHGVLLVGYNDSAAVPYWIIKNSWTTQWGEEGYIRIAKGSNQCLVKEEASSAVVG
Experiment: biochemical
Settings: read-out: Inhibition at 5 µM (Mean ± SEM %) Cruzain 10′ inc, 5 µM, 10′ pre-incubation, initial screening
Description: Allison Doak and Prof. Brian Shoichet (University of California San Francisco, San Francisco, CA, USA) and Prof. Conor Caffrey (University of California San Diego, San Diego, CA, USA) generously provided recombinant cruzain and TbrCatL, respectively. In vitro activity of proteases cruzain and TbrCatL was assayed as previously described. Briefly, enzyme activity was measured by monitoring the cleavage of the fluorogenic substrate Z-Phe-Arg-amidomethylcoumarin (Z-FR-AMC) at 25 °C. […]
Please reply with the bare figure in % and do not write the unit itself.

Name the recorded inhibition at 5 µM of the item `N=C(N)Nc1ccc(-c2ccc(-c3ccc(NC(=N)N)c(Cl)c3)o2)cc1Cl` in your answer.
50

Supply measured inhibition at 5 µM of `CN1CCN(S(=O)(=O)c2ccc(-c3ccc4c(Nc5ccc6nn[nH]c6c5)ccnc4c3)cc2)CC1` in your reply.
39

Answer with the recorded inhibition at 5 µM for the compound listed here: `CN1CCN(CCCOc2ncc(Nc3ncc(-c4ccc(C(F)(F)F)c(F)c4)nc3C(N)=O)cn2)CC1`
27

Given the compound `O=C(NCCN1CCCC1)c1cc(NCCN2CCOCC2)nc2ccc(Cl)cc12` , write its reported inhibition at 5 µM.
31

Tell us which inhibition at 5 µM value is on record for `Cn1ccnc1CNCCS(=O)(=O)c1cccc(Nc2ccc(-c3cccc(F)c3)cn2)c1`
49

----------
Molecular target: cruzain (Trypanosoma cruzi, UniProt P25779);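 for Cruzain Inhibition 10’: at 5 µM compound concentration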
Assay: biochemical
Settings: 10’ (pre-incubation); sheet Screening results
Observed Property: Cruzain Inhibition 10’

Give the reported Cruzain Inhibition 10’ for this molecule. `Cc1ccc2[nH]c3c(NCCN(C)C)ncnc3c2c1`
21%

Please give the documented Cruzain Inhibition 10’ of `Cc1cc(OCC(=O)NCc2ccccc2)c2cc(Br)ccc2n1`
6%

Look up and state reported Cruzain Inhibition 10’ for `Cc1ccc(Oc2ccc(NC(=O)CNc3ccccc3N3CCCC3=O)cc2)cc1`
8%

Please report the measured Cruzain Inhibition 10’ for `Cc1cc(C(=O)Nc2ccc(-c3ccccc3)cc2)no1`
-0.4%

Using known records, supply Cruzain Inhibition 10’ for CC1=NN(c2nc3ccccc3s2)C(=O)C1Cc1cccc2ccccc12 (stereo not drawn)
-18%

Return the recorded Cruzain Inhibition 10’ value; entry: `COc1ccccc1OCCCCn1c(C2CC2)nc2ccccc21`
-11%

For the molecule `Cc1ccc(S(=O)(=O)N2CCN(C(=O)c3cc(-c4ccccc4)n[nH]3)CC2)cc1` , give its reported Cruzain Inhibition 10’.
-3%

Note Cruzain Inhibition 10’ for the molecule shown: `Cc1cc(C)cc(COc2ccc3c(C)c(CCC(=O)O)c(=O)oc3c2C)c1`
-3.3%

State, in one line, measured Cruzain Inhibition 10’ of COc1ccccc1C(C)NCC(=O)Nc1cc(C(F)(F)F)ccc1Cl (stereo not drawn)
-0.8%

----------
Assignment: determine reported TbrCatL 0’ Inhibition for the given compounds.
Target: TbrCatL (Trypanosoma brucei rhodesiense, UniProt Q95PM0)
Construct: Conor Caffrey (University of California San Diego)
Sequence (Q95PM0 entry or part of it): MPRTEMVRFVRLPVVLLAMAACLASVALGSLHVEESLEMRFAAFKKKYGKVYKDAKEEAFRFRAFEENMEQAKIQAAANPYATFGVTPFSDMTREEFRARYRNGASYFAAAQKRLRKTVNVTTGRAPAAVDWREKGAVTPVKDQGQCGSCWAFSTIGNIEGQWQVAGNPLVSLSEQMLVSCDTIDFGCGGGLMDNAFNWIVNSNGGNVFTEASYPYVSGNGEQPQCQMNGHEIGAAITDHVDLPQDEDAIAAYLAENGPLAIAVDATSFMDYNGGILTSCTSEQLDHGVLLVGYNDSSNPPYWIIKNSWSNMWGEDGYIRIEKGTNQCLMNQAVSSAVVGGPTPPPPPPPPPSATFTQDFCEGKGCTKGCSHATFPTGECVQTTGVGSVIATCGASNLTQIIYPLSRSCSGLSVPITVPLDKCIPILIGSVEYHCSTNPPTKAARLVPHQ
Test: TbrCatL enzymatic inhibition assay (cleavage of fluorogenic substrate Z-FR-AMC);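 note: at 5 µM compound concentration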
Assay type: biochemical
Settings: 0’ (pre-incubation time); sheet "Screening results"
Express the result in % but write the number alone.

Given CC(C)C(Oc1cccc2ccccc12)C(=O)O (centres unmarked) , report its TbrCatL 0’ Inhibition on TbrCatL (Trypanosoma brucei rhodesiense, UniProt Q95PM0).
-3

GET TbrCatL 0’ Inhibition | system: TbrCatL (Trypanosoma brucei rhodesiense, UniProt Q95PM0) | item: `O=C(NC1CC1)c1ccc(CSCc2ccccc2Cl)o1`
-6.5

Tell me TbrCatL 0’ Inhibition of `COc1cc(CN2CCC3(C=Cc4ccccc43)CC2)cc2c1OCO2` when tested on TbrCatL (Trypanosoma brucei rhodesiense, UniProt Q95PM0).
-3.2

State, for TbrCatL (Trypanosoma brucei rhodesiense, UniProt Q95PM0), measured TbrCatL 0’ Inhibition of the compound listed here: CC1=Nc2ccc(Cl)cc2C(O)(c2ccc(C)cc2)N1CCN1CCCCC1 (centres unmarked)
-3

Consider the compound `Cc1cc(OCC(=O)Nc2ccc(C(C)C)cc2)n(C)c(=O)c1C#N` tested on TbrCatL (Trypanosoma brucei rhodesiense, UniProt Q95PM0); state its TbrCatL 0’ Inhibition.
-5

Name the value of TbrCatL 0’ Inhibition reported for `Cc1cccc(C(=O)Nc2ccnc(N(C)C3CCN(CC(C)C)CC3)c2)c1` when tested on TbrCatL (Trypanosoma brucei rhodesiense, UniProt Q95PM0).
4

# return TbrCatL 0’ Inhibition of `CC(C)(C)OC(=O)N1CCC(Cn2nc(-c3cnc4ccccc4c3)c3c(N)ncnc32)CC1` (system: TbrCatL (Trypanosoma brucei rhodesiense, UniProt Q95PM0))
-10

Send back TbrCatL (Trypanosoma brucei rhodesiense, UniProt Q95PM0) TbrCatL 0’ Inhibition of `CN1CCN(c2nccc3nc(-c4ccc(F)c(F)c4)[nH]c23)CC1` only.
0.7

Enter TbrCatL 0’ Inhibition (test system TbrCatL (Trypanosoma brucei rhodesiense, UniProt Q95PM0)) for CN1CCCN(C(c2ccccc2)c2ccc(Cl)cc2)CC1 (centres unmarked)
-5.4

Quote TbrCatL (Trypanosoma brucei rhodesiense, UniProt Q95PM0) TbrCatL 0’ Inhibition for entry `Clc1ccc(Cl)c(CO[C@H]2CCCC[C@@H]2n2ccnc2)c1` .
0.8

Under TbrCatL (Trypanosoma brucei rhodesiense, UniProt Q95PM0), report TbrCatL 0’ Inhibition for `c1ccc(Oc2ccc(-c3cc(CN4CCOCC4)[nH]n3)cc2)cc1`
-3

Give TbrCatL (Trypanosoma brucei rhodesiense, UniProt Q95PM0) TbrCatL 0’ Inhibition for the following compound: O=C(c1ccc(NCCO)cc1)C1C[C@H]1c1ccc(Cl)cc1 (some centres unmarked)
1.1

State TbrCatL 0’ Inhibition (TbrCatL (Trypanosoma brucei rhodesiense, UniProt Q95PM0)) of CC(c1cc(Cl)cc(Cl)c1)N(C)c1ncc2c(N)nc(N)nc2n1 (centres unmarked) .
-12

Quote TbrCatL (Trypanosoma brucei rhodesiense, UniProt Q95PM0) TbrCatL 0’ Inhibition for entry `CC(C)NCC(=O)Nc1cccc(C(=O)Nc2cccc(C(F)(F)F)c2)c1` .
1.8

Give the observed TbrCatL 0’ Inhibition of Cc1nn(C)cc1C(C)Nc1nncc(-c2ccc(C(F)(F)F)cc2)n1 (centres unmarked) for TbrCatL (Trypanosoma brucei rhodesiense, UniProt Q95PM0).
0.6

Write down the reported TbrCatL 0’ Inhibition (system: TbrCatL (Trypanosoma brucei rhodesiense, UniProt Q95PM0)) of `COc1ccc(Oc2ccc([C@@H](C)N(C)c3ncc4c(N)nc(N)nc4n3)cc2)cc1`
-2.5

Answer briefly: TbrCatL 0’ Inhibition recorded on TbrCatL (Trypanosoma brucei rhodesiense, UniProt Q95PM0) for `C[C@H](c1ccc2c(c1)CCCC2)N(C)c1ncc2c(N)nc(N)nc2n1`
-18

State measured TbrCatL 0’ Inhibition of the compound `CC(C)(C)CN1C(=O)C(c2ccccc2)(c2ccccc2)N=C1N` with TbrCatL (Trypanosoma brucei rhodesiense, UniProt Q95PM0).
-5

Please report the measured TbrCatL 0’ Inhibition for `O=C(CN1CCOCC1)Nc1ccc2ncnc(Nc3ccc(OCc4cccc(F)c4)c(Cl)c3)c2c1` tested on TbrCatL (Trypanosoma brucei rhodesiense, UniProt Q95PM0).
13

Find TbrCatL 0’ Inhibition for `CN(C(=O)c1cc2c(-c3cncnc3)cccc2[nH]1)c1ccccc1` on TbrCatL (Trypanosoma brucei rhodesiense, UniProt Q95PM0) and write it down.
-4.6

Report value only: TbrCatL 0’ Inhibition, TbrCatL (Trypanosoma brucei rhodesiense, UniProt Q95PM0), `COc1ccc(OC)c(NCc2ccc3nc(N)nc(N)c3c2Cl)c1`
20

Please respond with reported TbrCatL 0’ Inhibition (system TbrCatL (Trypanosoma brucei rhodesiense, UniProt Q95PM0)) for CCc1ccc(C(NCc2nc(N)nc(N(C)C)n2)C(C)C)cc1 (centres unmarked) .
-6

Identify measured TbrCatL 0’ Inhibition obtained with TbrCatL (Trypanosoma brucei rhodesiense, UniProt Q95PM0) for `FC(F)(F)c1cccc(-c2nc3c(NCc4ccncc4)nccc3[nH]2)c1` .
-7

Write down measured TbrCatL 0’ Inhibition (TbrCatL (Trypanosoma brucei rhodesiense, UniProt Q95PM0)) for this compound. `Cc1cc(Cl)c(S(=O)(=O)N2CCCC2)cc1OCC(=O)NC1CCCCC1`
1.6

Return reported TbrCatL 0’ Inhibition for target or system TbrCatL (Trypanosoma brucei rhodesiense, UniProt Q95PM0), item `c1ccc(Oc2ccc(-c3cc(N4CCNCC4)[nH]n3)cc2)cc1` .
-6

Enter recorded TbrCatL 0’ Inhibition with TbrCatL (Trypanosoma brucei rhodesiense, UniProt Q95PM0) for `O=C(Nc1ccc(N2CCNCC2)cc1)c1ccn2ncc(-c3cccc(Cl)c3)c2n1` here.
1.7
